The measured values listed here are drawn from paper PMC10618793.

Kindly supply the reported Kd values for the records listed here.
Target: P2X4 receptor (Homo sapiens, UniProt Q99571)
Construct: His tag (N); purchased MyBioSource, Inc (San Diego, CA, USA)
Sequence (Q99571 77-338): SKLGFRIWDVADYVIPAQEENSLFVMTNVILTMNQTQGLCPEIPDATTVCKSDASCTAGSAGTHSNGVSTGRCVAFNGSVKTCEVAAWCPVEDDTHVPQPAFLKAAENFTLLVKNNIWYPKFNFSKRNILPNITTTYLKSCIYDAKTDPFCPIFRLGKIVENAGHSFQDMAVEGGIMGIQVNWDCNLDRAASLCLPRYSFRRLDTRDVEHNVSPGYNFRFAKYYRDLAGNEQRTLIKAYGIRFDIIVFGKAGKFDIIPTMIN
Experiment: Surface plasmon resonance binding screening assay
Conditions: SPR Biacore T200, P2X4 immobilized on CM5 chip, 0.4-300 μM, 1:1 binding model; n.d. = not detectable; read-out: KD (equilibrium dissociation constant)
Numeric answer only, unit µM assumed.

INPUT: Need Kd, item CCCCCc1cc(O)c(C/C=C(\C)CCC=C(C)C)c(O)c1C(=O)O [CBGA, cannabigerolic acid]
OUTPUT: 144

INPUT: Which measured Kd value corresponds to C=C(C)[C@@H]1C[C@H](O)C(C)=C[C@H]1c1c(O)cc(CCCCC)cc1O [6α–OH–CBD, 6α-hydroxy cannabidiol] ?
OUTPUT: 337

INPUT: Sample CCCc1cc(O)c(C/C=C(\C)CCC=C(C)C)c(O)c1C(=O)O [CBGVA, cannabigerovarinic acid] — what was its Kd?
OUTPUT: 92

INPUT: Need Kd, item C=C(C)c1ccc(C)cc1-c1c(O)cc(CCCCC)cc1O [CBND, cannabinodiol]
OUTPUT: 84.2

INPUT: # input molecule: CC(C)=CCC/C(C)=C/Cc1c(O)cc(C)c(C(=O)O)c1O [CBGOA, cannabigerorcinic acid] ; wanted: its Kd
OUTPUT: 138

INPUT: Any idea what its Kd is? The molecule is C=C(C)[C@@H]1CCC(C)=C[C@H]1c1c(O)cc(CCCCC)cc1O [CBD, cannabidiol]
OUTPUT: 1.04

INPUT: What does the record list as Kd for C=C(C)[C@@H]1CCC(C)=C[C@H]1c1c(O)cc(CCC)cc1O [CBDV, cannabidivarin] ?
OUTPUT: 9.91

====

Biological target: P2X4 receptor (Homo sapiens, UniProt Q99571)
Construct: His tag (N); purchased MyBioSource, Inc (San Diego, CA, USA)
Experiment: Surface plasmon resonance binding screening assay
Settings: SPR Biacore T200, P2X4 immobilized on CM5 chip, 0.4-300 μM, 1:1 binding model; n.d. = not detectable; read-out: Kon (association rate)
metricName: kon (M⁻¹ s⁻¹)
Provide only the numeric value, understood in M⁻¹ s⁻¹.

INPUT: Need kon, item `CCCc1cc(O)c2c(c1)OC(C)(C)c1ccc(C)cc1-2`
OUTPUT: 2470

INPUT: Which kon is listed for `CCCc1cc(O)c(C/C=C(\C)CCC=C(C)C)c(O)c1C(=O)O` ?
OUTPUT: 1890

INPUT: Field request: kon | item: C=C(C)[C@@H]1C[C@H](O)C(C)=C[C@H]1c1c(O)cc(CCCCC)cc1O [6α–OH–CBD, 6α-hydroxy cannabidiol]
OUTPUT: 1270

INPUT: Fill blank: measured kon of the molecule `C=C(C)[C@@H]1CCC(C)=C[C@H]1c1c(O)cc(CCC)cc1O` is ____.
OUTPUT: 12100

INPUT: Entry `CC(C)=CCC/C(C)=C/Cc1c(O)cc(C)c(C(=O)O)c1O` has what kon?
OUTPUT: 2720
